Tested on: HEK-293T
Experiment: Multiplex assay against HEK293T
Format: toxicity, cell-based
Details: human, 48 h, 1 µM, compound concentration 1 uM, replicate 2
# Population Apoptotic (%) annotations

{"columns": ["molecule", "units label", "Population Apoptotic (%)"],
 "data": [
  ["CN[C@@H](C)C(=O)N[C@H](C(=O)N1CCC[C@H]1C(=O)Nc1snnc1-c1ccccc1)C1CCCCC1 [GDC-0152]", "%", 40],
  ["Cl.NCCc1ccc(O)c(O)c1 [DOPAMINE HYDROCHLORIDE]", "%", 23],
  ["Cl.N=C(N)NC(=O)Cc1c(Cl)cccc1Cl [GUANFACINE HYDROCHLORIDE]", "%", 34],
  ["N#Cc1cc(F)cc(-c2nc(-c3ccc(F)cn3)no2)c1", "%", 27]
]}
